- tested-on: HLA-A*02:16
- experiment-description: IEDB peptide-MHC binding, purified MHC/direct/fluorescence; filed as Kd, often an IC50 or EC50 that approximates it; bounds were set here for any values at or beyond the usual limits of such assays
- protocol-conditions: source organism: Influenza A virus (A/England/654/2007(H1N1))
pKd: −log10 of the molar value.
observation-type: pKd

Hello, I am looking for reported pKd with HLA-A*02:16 for WTGMVDGWY . Could you help?
≤ 4.70

====

- tested-on: HLA-B*57:01
- experiment-description: IEDB peptide-MHC binding, purified MHC/direct/fluorescence; filed as Kd, often an IC50 or EC50 that approximates it; bounds were set here for any values at or beyond the usual limits of such assays
- protocol-conditions: source organism: Marburg virus - Musoke, Kenya, 1980
Each item that follows carries a reported Kd.

Requested read-out: Kd. Entry: ISDPLTSGL
≥ 20 µM

New cases:
Requested read-out: Kd. Entry: IHLDKGGQF
≥ 20 µM
